Reported values of koff for individual entries
- Experimental System: T1, Recombinant human B7-H3 extracellular domain protein (UniProtKB-Q5ZPR3, amino acids 1-461, C-His tag) (human, UniProt Q5ZPR3 29-461)
- T1 construct: range 1-461; The printed range 1-461 starts at residue 1 and so covers the signal peptide; also called human B7-H3 ECD-His; recombinant human B7-H3 ECD protein; not shown: C-terminal His tag
- T1 sequence (looked up): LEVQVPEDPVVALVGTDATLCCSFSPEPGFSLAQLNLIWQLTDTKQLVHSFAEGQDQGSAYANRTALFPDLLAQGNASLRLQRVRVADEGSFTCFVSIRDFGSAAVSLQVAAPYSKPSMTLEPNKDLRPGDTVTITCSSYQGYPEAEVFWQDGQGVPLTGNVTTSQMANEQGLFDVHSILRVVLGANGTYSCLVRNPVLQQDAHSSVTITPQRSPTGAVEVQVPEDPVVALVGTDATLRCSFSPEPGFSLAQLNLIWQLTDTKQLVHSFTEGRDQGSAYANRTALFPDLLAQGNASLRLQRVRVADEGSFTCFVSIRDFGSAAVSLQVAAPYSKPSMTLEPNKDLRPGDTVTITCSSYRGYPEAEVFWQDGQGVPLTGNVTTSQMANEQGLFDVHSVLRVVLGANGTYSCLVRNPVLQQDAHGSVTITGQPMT
- Procedure Text: BLI (ForteBio Octet QKe), antibody on AHC probes, 60 nM antigen, 1:1 Langmuir fit
Give the number; s⁻¹ is assumed, so skip it.

Previously resolved entries follow.
hz10B4m4 (antibody, V domains shown, LCDR3 variant of hz10B4 (SSN→SSG); also called hz10B4-VH×hz10B4-Lm4-VL) VH: EVQLVQSGAEVKKPGASVKVSCKASGYTFTEYIMHWVRQAPGQGLEWMGGINPASGGTTYNQKFKGRVTMTRDTSISTAYMELSRLRSEDTAVYYCARKGKDYFDWYFDVWGQGTTVTVSS VL: DIQLTQSPSSLSASVGDRVTMTCSASSSVSYMHWYQQKPGKAPKLLIYDTSKLASGVPSRFSGSGSGTDFTLTISSLQPEDFATYYCQQWSSGPLTFGGGTKVEIK :: 0.00042
hz10B4m3 (antibody, V domains shown, LCDR3 variant of hz10B4 (SSN→SSQ); also called hz10B4-VH×hz10B4-Lm3-VL) VH: EVQLVQSGAEVKKPGASVKVSCKASGYTFTEYIMHWVRQAPGQGLEWMGGINPASGGTTYNQKFKGRVTMTRDTSISTAYMELSRLRSEDTAVYYCARKGKDYFDWYFDVWGQGTTVTVSS VL: DIQLTQSPSSLSASVGDRVTMTCSASSSVSYMHWYQQKPGKAPKLLIYDTSKLASGVPSRFSGSGSGTDFTLTISSLQPEDFATYYCQQWSSQPLTFGGGTKVEIK :: 0.000281
hz10B4 (antibody, V domains shown, Humanized anti-B7-H3 antibody prepared by the method of CN114573695A; also called parent hz10B4; hz10B4-VH×hz10B4-VL) VH: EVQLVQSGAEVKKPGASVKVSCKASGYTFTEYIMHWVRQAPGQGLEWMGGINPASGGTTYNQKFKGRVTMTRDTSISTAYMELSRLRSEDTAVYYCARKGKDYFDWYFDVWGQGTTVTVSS VL: DIQLTQSPSSLSASVGDRVTMTCSASSSVSYMHWYQQKPGKAPKLLIYDTSKLASGVPSRFSGSGSGTDFTLTISSLQPEDFATYYCQQWSSNPLTFGGGTKVEIK :: 0.000143

Query (binder): hz10B4m2 (antibody, V domains shown, LCDR3 variant of hz10B4 (SSN→SAS); also called hz10B4-VH×hz10B4-Lm2-VL) VH: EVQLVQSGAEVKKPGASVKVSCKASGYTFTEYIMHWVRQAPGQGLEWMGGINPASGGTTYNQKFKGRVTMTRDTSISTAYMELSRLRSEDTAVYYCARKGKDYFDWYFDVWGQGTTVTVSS VL: DIQLTQSPSSLSASVGDRVTMTCSASSSVSYMHWYQQKPGKAPKLLIYDTSKLASGVPSRFSGSGSGTDFTLTISSLQPEDFATYYCQQWSASPLTFGGGTKVEIK ; field requested: koff
0.000287

Dear colleague, I am looking for the recorded koff of the following binder: hz10B4m1 (antibody, V domains shown, LCDR3 variant of hz10B4 (SSN→SSA); also called hz10B4-VH×hz10B4-Lm1-VL) VH: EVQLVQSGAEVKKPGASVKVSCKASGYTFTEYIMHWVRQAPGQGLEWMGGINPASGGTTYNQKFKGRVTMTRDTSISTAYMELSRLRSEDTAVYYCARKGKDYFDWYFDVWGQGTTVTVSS VL: DIQLTQSPSSLSASVGDRVTMTCSASSSVSYMHWYQQKPGKAPKLLIYDTSKLASGVPSRFSGSGSGTDFTLTISSLQPEDFATYYCQQWSSAPLTFGGGTKVEIK
0.000225

What does the record list as koff for hz10B4m5 (antibody, V domains shown, LCDR3 variant of hz10B4 (SSN→SGS); also called hz10B4-VH×hz10B4-Lm5-VL) VH: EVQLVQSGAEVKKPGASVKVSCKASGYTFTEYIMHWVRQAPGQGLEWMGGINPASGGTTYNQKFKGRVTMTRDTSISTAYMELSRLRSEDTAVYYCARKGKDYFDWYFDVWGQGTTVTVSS VL: DIQLTQSPSSLSASVGDRVTMTCSASSSVSYMHWYQQKPGKAPKLLIYDTSKLASGVPSRFSGSGSGTDFTLTISSLQPEDFATYYCQQWSGSPLTFGGGTKVEIK ?
0.000336
